- Assay Overview: Quantitative High-Throughput drug screen in 47 multiple myeloma cell lines against the NCATS MIPE library collection: KMS12PE_JCRB cell viability assay (AID 1918972); note: nearly all actives have a fitted effect of over 30% in size
- Settings: KMS12PE myeloma viability, CellTiter-Glo ATP, 48 h; series mostly up to 45.8 µM
Results filed as inconclusive are left out. Activity calls are given as the source filed them. Calls come from the whole dose curve; as a rule, active = well fitted cell-killing curve with a large enough effect; inconclusive = small, poorly fitted or top-dose-only effect, or effect the other way; inactive = no such curve, though single readings can be large or run the other way.
Could you please pick one outcome from this set? active, inactive

[[record]]
compound = "Cc1ccc(NC(=O)c2ccc(CN3CCN(C)CC3)cc2)cc1Nc1nc(-c2cccnc2)cs1"
answer_label = "active"

[[record]]
compound = "Cc1ccccc1-n1c(Cn2nc(-c3cccc(O)c3)c3c(N)ncnc32)nc2cccc(C)c2c1=O"
answer_label = "active"

[[record]]
compound = "O=C1CCCC(=O)C1C(=O)c1ccc(C(F)(F)F)cc1[N+](=O)[O-]"
answer_label = "inactive"

[[record]]
compound = "O=C(O)CCC=CCC[C@@H]1[C@H](N2CCCCC2)[C@@H](O)C[C@@H]1OCc1ccc(-c2ccccc2)cc1"
answer_label = "inactive"

[[record]]
compound = "c1ccc(-c2oc3ncnc(NC[C@@H]4CCCO4)c3c2-c2ccccc2)cc1"
answer_label = "active"

[[record]]
compound = "Cc1ccc(S(=O)(=O)Nc2nc3ccccc3nc2Nc2ccc3nsnc3c2)cc1"
answer_label = "active"


Req: # fetch the recorded call for `CCn1c(-c2nonc2N)nc2cncc(CNC3CCNCC3)c21` here
Resp: active

Req: # fetch the recorded call for `CC1CCN(c2cc(N3CCN(C)CC3)ccc2NC(=O)c2cc(C#N)c[nH]2)CC1` here
Resp: inactive

Req: # fetch the recorded call for `CN(C)CCOc1ccc(C(=C(CCCl)c2ccccc2)c2ccccc2)cc1` here
Resp: inactive

Req: # fetch the recorded call for `COc1cc(N2CCN(C)CC2)ccc1Nc1nc(N)c(C(=O)c2c(Cl)cccc2Cl)s1` here
Resp: active

Req: # fetch the recorded call for `CON(C)C(=O)N1N=C(c2cc(F)ccc2F)S[C@]1(CCCN)c1ccccc1` here
Resp: active
